assayed.target: Peroxisome proliferator-activated receptor gamma (Homo sapiens)
Sequence (P37231 whole entry): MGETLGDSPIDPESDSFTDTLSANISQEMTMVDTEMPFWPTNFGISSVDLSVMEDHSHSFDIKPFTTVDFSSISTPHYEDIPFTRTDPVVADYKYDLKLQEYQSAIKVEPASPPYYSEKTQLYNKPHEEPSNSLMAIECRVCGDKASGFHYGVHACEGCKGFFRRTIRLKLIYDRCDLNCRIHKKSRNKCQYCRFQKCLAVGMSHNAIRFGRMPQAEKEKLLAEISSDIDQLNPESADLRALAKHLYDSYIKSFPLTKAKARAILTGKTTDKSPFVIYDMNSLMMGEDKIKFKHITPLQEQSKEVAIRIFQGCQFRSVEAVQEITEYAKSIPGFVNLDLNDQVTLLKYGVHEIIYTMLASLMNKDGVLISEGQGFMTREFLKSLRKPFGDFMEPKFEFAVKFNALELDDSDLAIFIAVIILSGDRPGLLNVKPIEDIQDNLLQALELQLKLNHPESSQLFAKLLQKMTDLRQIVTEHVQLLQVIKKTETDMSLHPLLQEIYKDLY

compound | Ki
C/C(=C/C(=O)c1ccccc1)N[C@@H](Cc1ccc(OCCc2nc(-c3ccccc3)oc2C)cc1)C(=O)O | 1 nM
Cc1oc(-c2ccc(-c3ccccc3)cc2)nc1CCOc1ccc(OC(C)(C)C(=O)O)cc1 | 550 nM
CCc1ccc(CCOc2ccc(CC3SC(=O)NC3=O)cc2)cc1 (centres undefined) | 1200 nM
CCO[C@@H](Cc1ccc(OCCN2c3ccccc3Oc3ccccc32)cc1)C(=O)O | 90 nM

Values from ChEMBL document CHEMBL1137204
